Overview of recorded Percent Effect for various compounds
measured-target: Tyrosyl-tRNA synthetase, putative (Trypanosoma cruzi (strain CL Brener))
assay-details: Trypanosoma cruzi tyrosyl tRNA synthetase (TcYRS) _High Tyrosine SOP; further: in the data most compounds retested in dose-response had high values
Assay type: functional
Parameters: scale not given: direction of the effect not stated beside the values
experimental-conditions: 30 µM
outcome-measure: Percent Effect (%)

- COc1cccc(CN2CCCCCC2c2cccc(C)c2)c1O (configuration not stated): -5.29
- COC(=O)CNC(=O)CSCc1nc(O)c2cc(C(C)C)sc2n1: -3.17
- Cc1nc(O)c2nnn(C[C@H]3CCCN3C(=O)CCC3CCCC3)c2n1: -1.07
- Cn1nc(COc2cccnc2)c2c1CCN(c1cnccn1)C2: 5.41
- O=C(CN1C=Nc2ccccc2S1(=O)=O)NCCc1cccs1: 8.37
- O=C(CN1CCC(C(=O)c2cc(F)ccc2F)CC1)NC1CCCC1: 1.06
- Cn1cc(-c2cnc(N3CCOCC3)nc2)cc1C(=O)NCCO: 0
- c1ccc(-c2noc(CNC3CCc4ncnn4C3)n2)nc1 (configuration not stated): 2.97
- CO[C@H]1CCN(S(=O)(=O)c2cn(C)cn2)[C@H]1Cc1cnn(C)c1: -4.17
- CNC(=O)c1ccc(C2CN(C(=O)c3cncs3)CCO2)nc1 (configuration not stated): 2.15
- COCc1noc(C2(c3ccc(F)cc3)CCOCC2)n1: 0.529
- O=C(NCCNc1ccc(C(F)(F)F)cn1)c1cncc(Br)c1: 13.3
- Cc1n[nH]c(C2CN(C(=O)c3cc(C4CC4)[nH]n3)CCO2)n1 (configuration not stated): 5.71
- C=C(C)C(=O)N1CCC(C(=O)c2cc(C)cnc2N)CC1: 7.45
- CC(C)(C)C(=O)NS(=O)(=O)c1ccc(C#N)cc1C(F)(F)F: 1.48
- CCc1nccn1C1CCCN(C(=O)c2ccc3[nH]cnc3c2)C1 (configuration not stated): 8.51
- Cn1nc(C2CCN(C(=O)Cc3cccc(F)c3)CC2)c2cccnc21: 1.07

###

measured-target: Protein translocase subunit SecA (Escherichia coli (strain K12))
assay-details: Assay to Identify E. coli SecA ATPase Inhibitors
Format: functional
Parameters: scale not given: direction of the effect not stated beside the values
experimental-conditions: 30 µM
Results with a measured potency or affinity are listed apart.
outcome-measure: Percent Effect (%)

- CCC(=O)N1CC[C@@H](c2ccc3ccccc3c2)[C@H](O)C1: -3.58
- Cc1nn(C)c(Cl)c1C1CCCN1C(=O)c1nccnc1N (configuration not stated): -2.73
- Cn1nc2c(cc1=O)CN(CCc1nc3ccccc3c(=O)[nH]1)CC2: -4.31
- O=C(NCC1CCOC1)c1cc(-c2cccc(Cl)c2)on1 (configuration not stated): -3.92
- CCn1nnc2cc(C(=O)N3CCCC3Cn3cc(C)cn3)ccc21 (configuration not stated): -1.32
- CCCNC(=O)N1CCN(Cc2cc(C)no2)CC1: -3.25
- COc1ccccc1C(=O)N(C)Cc1ncc(C)c(OC)c1C: -0.917
- Cc1cc(C)c2cc(CNCC3CCCO3)c3nn(C)c(=O)n3c2c1 (configuration not stated): -1.56
- O=C(c1cnc(C2CC2)s1)N1CCCC(n2cccn2)C1 (configuration not stated): -2.59
- Cc1csc(C2CCCN(C(=O)c3ccc(=O)n(C)n3)C2)n1 (configuration not stated): -1.5
- CC(C)n1c(C2CCCN(CCS(C)(=O)=O)C2)nc2ccccc21 (configuration not stated): -2.02
- CC(NC(=O)C1=NN(C)C(=O)CC1)c1ccc(Cl)cc1Cl (configuration not stated): -2.53
